Each item that follows carries a reported inhibition at 10 µg/mL.
target: rat lens aldose reductase (RLAR) (Rattus norvegicus); construct: the supernatant that retained the RLAR was collected for further tests; from tissue; host or cells: eye lens of Sprague-Dawley rats; assay: Rat lens aldose reductase (RLAR) inhibitory assay; type: biochemical; conditions: isolated compounds; sample concentration 10 μg/mL; mean ± SD (n = 3)
measurementKind: inhibition at 10 µg/mL (%)

- O=C(O)c1cc(O)c(O)c(O)c1 [Gallic acid (1), gallic acid]: 80.2
- Oc1cc(O)c2c(c1)O[C@H](c1ccc(O)c(O)c1)[C@@H](O)[C@@H]2c1c(O)cc(O)c2c1O[C@H](c1ccc(O)c(O)c1)[C@@H](O)C2 [Procyanidin B3 (2), procyanidin B3]: 44.6
- COC(=O)c1cc(O)c(O)c(O)c1 [Methyl gallate (4), methyl gallate]: 32.2
- Oc1cc(O)c2c(c1)O[C@H](c1ccc(O)c(O)c1)[C@@H](O)C2 [Catechin (3), catechin]: 69.6
